SYSTEM TESTED: T1, hANGPTL3(17-460)-His (human, UniProt Q9Y5C1 17-460)
T1 construct: Bought protein (R&D Systems); also called full-length mature human ANGPTL3 with a C-terminal decahistidine tag; Human ANGPTL3 (17-460)-His
T1 sequence: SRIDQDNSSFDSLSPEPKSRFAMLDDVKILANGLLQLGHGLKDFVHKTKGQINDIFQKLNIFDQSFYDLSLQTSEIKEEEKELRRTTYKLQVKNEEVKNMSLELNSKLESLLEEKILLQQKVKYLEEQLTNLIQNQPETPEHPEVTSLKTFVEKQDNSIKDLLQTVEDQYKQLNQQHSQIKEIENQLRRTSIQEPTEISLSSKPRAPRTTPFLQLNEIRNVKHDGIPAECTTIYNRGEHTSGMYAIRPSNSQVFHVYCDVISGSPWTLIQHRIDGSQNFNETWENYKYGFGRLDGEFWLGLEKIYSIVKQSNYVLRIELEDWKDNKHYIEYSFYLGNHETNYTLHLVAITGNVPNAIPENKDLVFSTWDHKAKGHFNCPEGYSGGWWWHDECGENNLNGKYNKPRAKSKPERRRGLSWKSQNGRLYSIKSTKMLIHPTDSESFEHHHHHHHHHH
MEASUREMENT NOTES: SPR Biacore, antigen captured, 25C, pH 7.4, HBS-EP
Hi there, I'd appreciate the recorded Kd for every entry that follows.
Give the number; nM is assumed, so skip it.

Data request, read-out Kd, for H4H1268S (antibody, IgG4, V domains shown) VH: QVQLQQSGPGLVKPSQTLSLTCAISGDSVSSNSPAWNWIRQSPSRGLEWLGRTYYRSKWYNDYAVSVRGRITINPDTSNNQFSLHLNSVTPEDTAMYYCARDKGLTARPTYFDYWGQGTLVTVSS VL: DIQMTQSPSTLSASVGDRVTITCRASQSINYWLAWYQQKPGKAPKPLIYKASSLESGVPSRFSGSGSGTEFTLTISSLQPDDFTTYYCQQYNSYSPTFGQGTKLEIKR
1.47

Fill in: Kd of H4H1282P (antibody, IgG4, V domains shown) VH: EVQLVQSGGGVVQPGRSLRLSCAASGFTFSNYGMHWVRQAPGKGLEWVAVVWYDGDNKYYADSVKGRFTISRDNSKNTLYLQMNSLRAEDTAVYYCARDIITSRPTLDYWGQGTLVTVSS VL: DIQLTQSPSFLSASVGDRVTITCWASQGINSYLAWYQQKPGKAPKLLIYPASTLQSGVPSRFSGSGSGTEFTLTISSLQPVDFATYYCQQLNSYPLTFGGGTKVEIKR is ___
0.0968

Item H4H1263S (antibody, IgG4, V domains shown) VH: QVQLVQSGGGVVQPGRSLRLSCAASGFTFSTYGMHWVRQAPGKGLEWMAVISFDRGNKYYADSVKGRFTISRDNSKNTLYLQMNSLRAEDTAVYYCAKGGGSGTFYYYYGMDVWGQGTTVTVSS VL: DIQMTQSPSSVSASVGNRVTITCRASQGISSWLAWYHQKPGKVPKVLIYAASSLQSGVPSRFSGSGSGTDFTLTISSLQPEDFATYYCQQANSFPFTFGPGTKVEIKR has what recorded Kd?
2.47
